Value source: ChEMBL document CHEMBL3867427

# test.method.notes: Antiproliferative activity against human HL60 cells after 72 hrs by cell titer 96 aqueous one solution based assay
# Format: functional
# cond: HL-60, 72 h
pIC50: −log10 of the molar value.
pIC50 values for the compounds below.

Worked cases, pIC50 given:
compound	pIC50
CC[C@H]1C=CCC[C@@]2(C[C@@H]3CC[C@@H]4[C@H](C(=O)OCCCCCCCCCCCCCCC(=O)N(CCCN)CC(O)CCN)[C@]5(CCC[C@@H](C)O5)NC(=[N+]34)N2)O1 (some centres not stated)	5.27 to 5.30
CCCCCCCCCc1cc2[n+](c(N)n1)CCC2	5.89
CCCCCCCC[C@@H]1N=C(N)N2CCCC2=C1C(=O)OCCCCNC(=N)N	5.04 to 5.10

So for CCCCCCCCCc1nc(N)[n+]2c(c1C(=O)OCCCCNC(=N)N)CCC2 , the logged pIC50 turned out to be 5.27 to 5.44

So for CCCCCCC[C@@H]1N=C(N)N2CCCC2=C1C(=O)O , the logged pIC50 turned out to be 5.15 to 5.42

So for CC[C@H]1C=CCC[C@@]2(C[C@@H]3CC[C@@H]4[C@H](C(=O)OCCCCCCCCCCCCCCCC(=O)N(CCCN)CC(O)CCN)[C@]5(CCC[C@@H](C)O5)NC(=[N+]34)N2)O1 (some centres not stated) , the logged pIC50 turned out to be 8.22 to 8.40

So for CC[C@H]1C=CCC[C@@]2(C[C@@H]3CC[C@@H]4[C@H](C(=O)OCCCCCCCCCCCCCCCCC(=O)N(CCCN)CC(O)CCN)[C@]5(CCC[C@@H](C)O5)NC(=[N+]34)N2)O1 (some centres not stated) , the logged pIC50 turned out to be 7.52 to 8.00
